- System: Vero E6 infected with SARS-CoV-2
- assay_method_text: inhibition of SARS-CoV-2 cytopathic effect; higher = more antiviral protection, active = above 15
- recorded_conditions: 833.33 nM; 48 h
Exercise: state measured inhibition of SARS-CoV-2 cytopathic effect for each of the compounds provided.

So, Cc1cc2c(cc1CC(=O)c1sccc1S(=O)(=O)Nc1onc(C)c1Cl)OCO2 [sitaxentan] ? Its inhibition of SARS-CoV-2 cytopathic effect was 1.22% (inactive)

So, O=S(=O)(O)NC1CCCCC1 [cyclamic-acid] ? Its inhibition of SARS-CoV-2 cytopathic effect was 0.19% (inactive)

So, N#Cc1ccc2[nH]cc(CCCCN3CCN(c4ccc5oc(C(N)=O)cc5c4)CC3)c2c1 [vilazodone] ? Its inhibition of SARS-CoV-2 cytopathic effect was 1.56% (inactive)

So, CCOC(=O)c1c(C)n(C)c2ccc(O)cc12 [mecarbinate] ? Its inhibition of SARS-CoV-2 cytopathic effect was -2.4% (inactive)

So, CCCC(C)C1(CC)C(=O)NC(=O)NC1=O (stereo not given) [pentobarbital] ? Its inhibition of SARS-CoV-2 cytopathic effect was -1.44% (inactive)

So, NC(=O)c1[nH]cnc1O ? Its inhibition of SARS-CoV-2 cytopathic effect was -1.72% (inactive)

So, COc1cc(N)c(Cl)cc1C(=O)NC1CN2CCC1CC2 (stereo not given) [zacopride] ? Its inhibition of SARS-CoV-2 cytopathic effect was -2.33% (inactive)

So, CCOc1nc2cccc(C(=O)OCc3oc(=O)oc3C)c2n1Cc1ccc(-c2ccccc2-c2noc(=O)[nH]2)cc1 [azilsartan-medoxomil] ? Its inhibition of SARS-CoV-2 cytopathic effect was 1.93% (inactive)

So, Cc1ccc(/C(=C\CN2CCCC2)c2cccc(/C=C/C(=O)O)n2)cc1 [acrivastine] ? Its inhibition of SARS-CoV-2 cytopathic effect was 6.14% (inactive)

So, NCCS [cysteamine] ? Its inhibition of SARS-CoV-2 cytopathic effect was -1.61% (inactive)

---

- Tested on: Vero E6 infected with SARS-CoV-2
- assay_method_text: inhibition of SARS-CoV-2 cytopathic effect; higher = more antiviral protection, active = above 15
- recorded_conditions: 8.33 nM; 48 h
assay_readout: inhibition of SARS-CoV-2 cytopathic effect (%)
Answer format: numeric, % implied, no suffix.

Let me check: CCC[C@@H]1CC(=O)N([C@@H](CC)C(N)=O)C1 [Brivaracetam] , system Vero E6 infected with SARS-CoV-2, measured inhibition of SARS-CoV-2 cytopathic effect is -1.72

Let me check: C[C@]12CCC(=O)C=C1C=C[C@@H]1[C@@H]2CC[C@@]2(C)[C@H]1CC[C@@]2(O)CCC(=O)O [potassium-canrenoate] , system Vero E6 infected with SARS-CoV-2, measured inhibition of SARS-CoV-2 cytopathic effect is -2.95

Let me check: CN1CCN(c2ccc(C(=O)Nc3n[nH]c4ccc(Cc5cc(F)cc(F)c5)cc34)c(NC3CCOCC3)c2)CC1 [entrectinib] , system Vero E6 infected with SARS-CoV-2, measured inhibition of SARS-CoV-2 cytopathic effect is 2.95

Let me check: CCCn1c(=O)[nH]c2nc(-c3ccc(S(=O)(=O)O)cc3)[nH]c2c1=O , system Vero E6 infected with SARS-CoV-2, measured inhibition of SARS-CoV-2 cytopathic effect is -0.31

Let me check: CC(C[N+](C)(C)C)OC(N)=O (centres undefined) [bethanechol] , system Vero E6 infected with SARS-CoV-2, measured inhibition of SARS-CoV-2 cytopathic effect is 2.96

Let me check: CCn1cc(C(=O)O)c(=O)c2cc(F)c(N3CCNCC3)cc21 [norfloxacin] , system Vero E6 infected with SARS-CoV-2, measured inhibition of SARS-CoV-2 cytopathic effect is 2.29

Let me check: CCOc1ccc(Nc2nc(-c3c(C)nc4ccccn34)cs2)cc1 , system Vero E6 infected with SARS-CoV-2, measured inhibition of SARS-CoV-2 cytopathic effect is -0.39

Let me check: CCOC(=O)c1ncn2c1CN(C)C(=O)c1cc(N=[N+]=[N-])ccc1-2 , system Vero E6 infected with SARS-CoV-2, measured inhibition of SARS-CoV-2 cytopathic effect is 7.03

Let me check: CCOc1ccccc1C(=O)O [2-ethoxybenzoic-acid] , system Vero E6 infected with SARS-CoV-2, measured inhibition of SARS-CoV-2 cytopathic effect is 3.72

Data credit: the supplement of paper PMC13380429
